system: SEM cells; experiment: AUC of viability dose-response curve (% viability x log10 dose units); higher = less sensitive; settings: HPLM + 10% dialyzed FBS; 48 h
ENDPOINT_NAME: AUC of viability dose-response curve
The answer should be a number; do not append a unit.

{"RECORD_SMILES": "CC(C)(O)/C=C\\C(=O)[C@](C)(O)[C@H]1[C@H](O)C[C@]2(C)[C@@H]3CC=C4[C@@H](C=C(O)C(=O)C4(C)C)[C@]3(C)C(=O)C[C@@]12C", "AUC of viability dose-response curve": 234}

Prompt: Value wanted: AUC of viability dose-response curve (SEM cells) of entry C[C@H]1COC/2=C1/C(=O)C(=O)C3=C4CCCC(C)(C)C4=CC=C23
Response: 434

Prompt: Value wanted: AUC of viability dose-response curve (SEM cells) of entry COc1cc(C(=O)NS(=O)(=O)c2ccccc2C)ccc1Cc1cn(C)c2ccc(NC(=O)OC3CCCC3)cc12
Response: 323

Prompt: Value wanted: AUC of viability dose-response curve (SEM cells) of entry O=C(O)CCCc1c[nH]c2ccccc12
Response: 468

Prompt: Value wanted: AUC of viability dose-response curve (SEM cells) of entry Cc1cccc(/C=N/Nc2cc(N3CCOCC3)nc(OCCc3ccccn3)n2)c1
Response: 415

Prompt: Value wanted: AUC of viability dose-response curve (SEM cells) of entry CC(C)[C@H](N)C(=O)OCCOC[N]1C=NC2=C1\N=C(N)/NC2=O
Response: 467

----------
test system: NOMO1; assay: cell viability relative to DMSO control; higher = less cytotoxic; conditions: RPMI 5 mM glucose + 10% FBS; 48 h; 0.00234 µM
Below is a list of entries, each paired with its recorded cell viability value.
Return type: number; implicit unit %.

Check out these entries, answers already filled in.
{"COMPOUND": "CO/N=C(/C(=O)N[C@@H]1C(=O)N2C(C(=O)O)=C(CSC(=O)c3ccco3)CS[C@H]12)c1csc(N)n1", "OUTPUT_UNIT": "%", "cell viability": 104}
{"COMPOUND": "CCN1CCN(C(=O)Cc2ccc(Nc3ncc(F)c(Nc4ccc(C(=O)Nc5ccccc5Cl)cc4)n3)cc2)CC1", "OUTPUT_UNIT": "%", "cell viability": 98.1}
{"COMPOUND": "OC(CN1CCN(c2cccc(Cl)c2)CC1)C(c1ccccc1)c1ccccc1 (stereo unspecified)", "OUTPUT_UNIT": "%", "cell viability": 119}
{"COMPOUND": "CN(C)CCN1C(=O)c2cccc3cc(N)cc(c23)C1=O", "OUTPUT_UNIT": "%", "cell viability": 108}
{"COMPOUND": "COc1cc(/C=C/C(=O)O)ccc1O", "OUTPUT_UNIT": "%", "cell viability": 112}

Prompt: Need cell viability of OCCn1cc(-c2cnc3nnn(Cc4ccc5ncccc5c4)c3n2)cn1 , thanks.
Response: 110

Prompt: Need cell viability of NC/1=N/C(=O)N(/C=N1)[C@@H]2O[C@H](CO)[C@@H](O)[C@H]2O , thanks.
Response: 109

Prompt: Need cell viability of OC[C@H]1O[C@@H](Oc2cc(O)cc(/C=C/c3ccc(O)cc3)c2)[C@H](O)[C@@H](O)[C@@H]1O , thanks.
Response: 99.2

Prompt: Need cell viability of CC(C)(C)[C@H](NC(=O)c1ccc(N)c(Cl)c1)C(=O)N1CCC[C@H]1C(=O)N[C@H](C#N)CC(=O)O , thanks.
Response: 126

----------
test system: P12-Ichikawa; test: AUC of viability dose-response curve (% viability x log10 dose units); higher = less sensitive; conditions: RPMI 5 mM glucose + 10% dialyzed FBS; 48 h
ENDPOINT_NAME: AUC of viability dose-response curve
The answer should be a number; do not append a unit.

Check out these entries, answers already filled in.
{"COMPOUND": "N#C[C@H](O[C@@H]1O[C@H](CO[C@@H]2O[C@H](CO)[C@@H](O)[C@H](O)[C@H]2O)[C@@H](O)[C@H](O)[C@H]1O)c1ccccc1", "TARGET_DESC": "P12-Ichikawa", "AUC of viability dose-response curve": 427}
{"COMPOUND": "CC(O)C1C2C(C)\\C(=C(/N2C1=O)C(O)=O)SC3CNC(C3)C(=O)N(C)C (centres undefined)", "TARGET_DESC": "P12-Ichikawa", "AUC of viability dose-response curve": 416}

Prompt: Need AUC of viability dose-response curve of Cn1cc(C[C@@H](N)C(=O)O)c2ccccc21 , thanks.
Response: 469

Prompt: Need AUC of viability dose-response curve of CNC(=O)Nc1ccc(-c2nc(N3CC4CCC(C3)O4)c3cnn(C4CCC5(CC4)OCCO5)c3n2)cc1 , thanks.
Response: 336

----------
system: P12-Ichikawa; assay: cell viability relative to DMSO control; higher = less cytotoxic; conditions: HPLM + 10% dialyzed FBS; 48 h; 15.4 µM
Below is a list of entries, each paired with its recorded cell viability value.
Return type: number; implicit unit %.

{"COMPOUND": "COc1cc(/C=C/C(=O)O)ccc1O", "ENDPOINT_NAME": "cell viability", "OUTPUT_UNIT": "%", "NUMERIC_RESULT": 106}
{"COMPOUND": "CC(C)Cc1ccc(C(C)C(=O)O)cc1 (centres undefined)", "ENDPOINT_NAME": "cell viability", "OUTPUT_UNIT": "%", "NUMERIC_RESULT": 92.4}
{"COMPOUND": "CC/1=C(/N2[C@H](SC1)[C@H](NC(=O)C(N)C3=CC=CC=C3)C2=O)C(O)=O (some centres undefined)", "ENDPOINT_NAME": "cell viability", "OUTPUT_UNIT": "%", "NUMERIC_RESULT": 136}

Prompt: Value wanted: cell viability (P12-Ichikawa) of entry C[C@]12CC[C@H]3[C@@H](CCC/4=C/C(=O)CC[C@]34C)[C@@H]1CC[C@@H]2OC(=O)CCC5CCCC5
Response: 111

Prompt: Value wanted: cell viability (P12-Ichikawa) of entry CC[C@]1(O)C[C@@H]2CN(CCc3c([nH]c4ccccc34)[C@@](C(=O)OC)(c3cc4c(cc3OC)N(C)[C@H]3[C@@](O)(C(N)=O)[C@H](O)[C@]5(CC)C=CCN6CC[C@]43[C@@H]65)C2)C1
Response: 7.86

Prompt: Value wanted: cell viability (P12-Ichikawa) of entry OC1=CC2=C(C(=C1)O)C(=O)\C(=C(/O2)C3=CC(=C(O)C=C3)O)O
Response: 102

Prompt: Value wanted: cell viability (P12-Ichikawa) of entry CN(C)CCN1C(=O)c2cccc3cc(N)cc(c23)C1=O
Response: 74.8

Prompt: Value wanted: cell viability (P12-Ichikawa) of entry CN1CCN(C(=O)O[C@H]2c3nccnc3C(=O)N2c2ccc(Cl)cn2)CC1
Response: 98.2

Prompt: Value wanted: cell viability (P12-Ichikawa) of entry COc1cc(N2CCC(N(C)C)CC2)ccc1Nc1ncc(Cl)c(Nc2ccccc2P(C)(C)=O)n1
Response: 18.3

----------
tested on: P12-Ichikawa; assay: cell viability relative to DMSO control; higher = less cytotoxic; conditions: RPMI 5 mM glucose + 10% FBS; 48 h; 15.4 µM
ENDPOINT_NAME: cell viability (%)
Return type: number; implicit unit %.

{"COMPOUND": "CNC(=O)Nc1ccc(-c2nc(N3CC4CCC(C3)O4)c3cnn(C4CCC5(CC4)OCCO5)c3n2)cc1", "ENDPOINT_NAME": "cell viability", "NUMERIC_RESULT": 49.6}
{"COMPOUND": "OC[C@H]1O[C@@H](Oc2cc(O)cc(/C=C/c3ccc(O)cc3)c2)[C@H](O)[C@@H](O)[C@@H]1O", "ENDPOINT_NAME": "cell viability", "NUMERIC_RESULT": 103}
{"COMPOUND": "O=C1NC(=O)/C(=C/c2ccc(-c3ccc(F)cc3O)o2)S1", "ENDPOINT_NAME": "cell viability", "NUMERIC_RESULT": 80}
{"COMPOUND": "CN1CCN(C(=O)O[C@H]2c3nccnc3C(=O)N2c2ccc(Cl)cn2)CC1", "ENDPOINT_NAME": "cell viability", "NUMERIC_RESULT": 95.1}
{"COMPOUND": "CC(C)Oc1ccc(C(=O)N[C@H](CNC(=O)CN(C)C)Cc2ccc(-c3cn4cccc([C@H](C)O)c4n3)cc2)cc1Cl", "ENDPOINT_NAME": "cell viability", "NUMERIC_RESULT": 23}
{"COMPOUND": "COC(=O)N1CC2(CC2)C[C@H](C(=O)NO)[C@H]1C(=O)N1CCN(c2ccccc2)CC1", "ENDPOINT_NAME": "cell viability", "NUMERIC_RESULT": 9.97}
{"COMPOUND": "COc1cccc2c1CCCC2CCCN1CCN(C2CCCCC2)CC1 (configuration not stated)", "ENDPOINT_NAME": "cell viability", "NUMERIC_RESULT": 99.5}
{"COMPOUND": "COC1=CC=C2/C3=N/CCN3\\C(=N/C2=C1OC)NC(=O)C4=CC=CN=C4", "ENDPOINT_NAME": "cell viability", "NUMERIC_RESULT": 73.4}
{"COMPOUND": "CC(C)OC1=CC=C2C(=C1)O\\C=C(/C2=O)C3=CC=CC=C3", "ENDPOINT_NAME": "cell viability", "NUMERIC_RESULT": 110}
{"COMPOUND": "C1CCN2C[C@H]3C[C@H](\\C=C/4CCCN[C@@H]34)[C@H]2C1", "ENDPOINT_NAME": "cell viability", "NUMERIC_RESULT": 134}

Prompt: Need cell viability of CCCC1OC2C[C@H]3[C@@H]4CCC5=CC(=O)C=C[C@]5(C)[C@H]4C(O)C[C@]3(C)[C@]2(C(=O)CO)O1 (some centres not stated) , thanks.
Response: 51.3

Prompt: Need cell viability of NC/1=N/C(=O)N(/C=N1)[C@@H]2O[C@H](CO)[C@@H](O)[C@H]2O , thanks.
Response: 59

Prompt: Need cell viability of Cn1cc(C[C@@H](N)C(=O)O)c2ccccc21 , thanks.
Response: 100

Prompt: Need cell viability of CC(C)(O)c1cc2nc(-c3cnc(N)nc3)nc(N3CCOCC3)c2s1 , thanks.
Response: 49.4

Prompt: Need cell viability of C=CCc1ccc(O)c(-c2ccc(O)c(CC=C)c2)c1 , thanks.
Response: 13.7

Prompt: Need cell viability of OC1=CC2=C(C(=C1)O)C(=O)\C(=C(/O2)C3=CC(=C(O)C=C3)O)O , thanks.
Response: 101

Prompt: Need cell viability of COc1ncc(-c2ccc3c(Nc4cc(Oc5cc(F)cc(F)c5)cc(C(=O)O)c4)c([S+](=O)([O-])NC4CC4)cnc3c2)c(OC)n1 , thanks.
Response: 75.3

Prompt: Need cell viability of N#C/N=C(\NCCCCCCOc1ccc(Cl)cc1)Nc1ccncc1 , thanks.
Response: 5.53

Prompt: Need cell viability of CCOc1cc(CC(=O)N[C@@H](CC(C)C)c2ccccc2N2CCCCC2)ccc1C(=O)O , thanks.
Response: 17.6

Prompt: Need cell viability of COc1cccc2c1[C@]13CCN(CC4CC4)[C@H](C2)[C@]1(OC)CCC(=O)C3 , thanks.
Response: 117

Prompt: Need cell viability of COc1cc(O)c2c(c1)C(=O)c1cc(C)cc(O)c1C2=O , thanks.
Response: 97.6

Prompt: Need cell viability of CON(C)C(=O)N1/N=C(S[C@@]1(CCCN)C2=CC=CC=C2)/C3=CC(=CC=C3F)F , thanks.
Response: 9.67

Prompt: Need cell viability of N=C1N[C@H]2[C@H](CS[C@H]2CCCCC(=O)O)N1 , thanks.
Response: 126

Prompt: Need cell viability of N#C/C(C(=O)c1ccc(Cl)cc1Cl)=C1/NC(=O)c2ccc(Cl)cc2N1 , thanks.
Response: 105

Prompt: Need cell viability of O.O.CCN1CCN(C(=O)N[C@H](C(=O)N[C@H]2[C@@H]3SC\C(=C(/N3C2=O)C(O)=O)CSC4=NN=N[N]4C)C5=CC=C(O)C=C5)C(=O)C1=O , thanks.
Response: 99.6

Prompt: Need cell viability of Cc1cccc(/C=N/Nc2cc(N3CCOCC3)nc(OCCc3ccccn3)n2)c1 , thanks.
Response: 45

Prompt: Need cell viability of CNC(=O)[C@H](CC/1=C/N=C\2/C=C\C\C=C12)NC(=O)[C@H](CC(C)C)CC(=O)NO , thanks.
Response: 28.4
